measured-on: T1, mucin domain-deleted Sudan GP (GPdMuc) (Sudan virus (SUDV), UniProt Q7T9D9 33-632)
T1 construct: also called Sudan GPdMuc; GP(S)dMuc
test: ELISA on coated GP
readout-label: EC50 (µg/mL)
Reply numerically in µg/mL, unit not repeated.

For orientation, consider the following solved cases.
1. antibody 241S (antibody, V domains shown) VH: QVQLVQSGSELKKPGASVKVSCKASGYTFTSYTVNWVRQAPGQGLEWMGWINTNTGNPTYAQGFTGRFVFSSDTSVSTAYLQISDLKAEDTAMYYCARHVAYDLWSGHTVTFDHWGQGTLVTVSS VL: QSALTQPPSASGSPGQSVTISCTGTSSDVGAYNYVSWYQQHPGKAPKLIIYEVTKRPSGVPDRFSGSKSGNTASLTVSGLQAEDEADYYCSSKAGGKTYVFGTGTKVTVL | 0.331
2. antibody 573S (antibody, V domains shown) VH: EVQLVESGGGLVKPGGSLRLSCAASGFTFSSYTMNWVRQAPGKGLEWVSCIRSSSSDKYYADSVKGRFTISRDNTKNSLYLQMNSLRADDTAVYYCARDLGGANNRYYFDYGMDVWGQGTTVTVSS VL: EIVMTQSPATLSVSPGGRATLSCRASQSVYTNLAWYQQKPGQAPRLLIYDASTRATGIPARFSGSGSGTEFTLTISSLQCEDFAVYYCQHYNNWPLYTFGQGTKLEIK | 0.101

Quick note, EC50 for antibody 354S (antibody, V domains shown) VH: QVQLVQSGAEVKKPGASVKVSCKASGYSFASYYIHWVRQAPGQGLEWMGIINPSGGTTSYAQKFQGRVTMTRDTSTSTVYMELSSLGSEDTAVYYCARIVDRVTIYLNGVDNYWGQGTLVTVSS VL: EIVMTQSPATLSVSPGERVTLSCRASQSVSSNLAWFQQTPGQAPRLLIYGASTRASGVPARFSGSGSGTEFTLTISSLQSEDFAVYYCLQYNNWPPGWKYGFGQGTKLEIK landed at 0.0404
